- tested.on: Env of HIV-1 strain PVO.4 (HIV-1)
- test.protocol: cell-based or functional assay
readout.type: neutralization IC50 (µg/mL)
Return type: number; implicit unit µg/mL.

Ask: Need neutralization IC50 of 8ANC3044 (antibody, V domains shown) VH: QIHLVQSGTEVRKPGSSVTVSCKAYGVNTFGLYAVNWVRQAPGQSLEYIGQIWRWKSSASHHFRGRVLISAVDLTGSSPPISSLEIKNLTSDDTAVYFCTTTSTYDKWSGLHHDGVMAFSSWGQGTLISVSA VL: DIQMTQSPSTLSASIGDTVRISCRASQSITGNWVAWYQQRPGKAPRLLIYRGAALLGGVPSRFSGSAAGTDFTLTIGNLQTEDFGTFYCQQYDTYPGTFGQGTKVEVKR , thanks.
Result: 0.26
